Target: Recombinant (1-346) HPK1 (h) (Homo sapiens)
Construct: Recombinant (1-346) HPK1 (h) is incubated with 8 mM MOPS pH 7.0
Sequence (Q92918 1-346): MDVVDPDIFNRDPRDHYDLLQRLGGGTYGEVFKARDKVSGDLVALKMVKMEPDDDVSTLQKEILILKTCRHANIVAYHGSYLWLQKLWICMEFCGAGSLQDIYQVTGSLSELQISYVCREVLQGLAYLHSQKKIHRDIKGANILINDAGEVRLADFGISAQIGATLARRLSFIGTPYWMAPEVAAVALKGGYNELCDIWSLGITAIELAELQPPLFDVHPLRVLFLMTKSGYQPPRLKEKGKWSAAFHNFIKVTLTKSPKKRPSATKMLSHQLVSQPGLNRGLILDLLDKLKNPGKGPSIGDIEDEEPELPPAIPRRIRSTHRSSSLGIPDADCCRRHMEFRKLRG
Assay: HPK1 human STE kinase enzymatic radiometric assay
Format: biochemical
Details: read-out: HPK1 IC50 nM Range
Procedure: (a) HPK1 Human STE Kinase Enzymatic Radiometric Assay A stock solution of 10 mM of test compound is prepared in DMSO. The compound plate was prepared by 3-fold and 9-point serial dilutions. Recombinant (1-346) HPK1 (h) is incubated with 8 mM MOPS pH 7.0, 0.2 mM EDTA, 0.33 mg/mL myelin basic protein, 10 mM MgAcetate and [gamma-33P]-ATP (specific activity and concentration as required). The reaction is initiated by the addition of the Mg/ATP mix. […]
Reported Property: IC50

Reported IC50 for "Nc1nc(F)c(-c2ccc(C3CCOCC3)c(CN3CCC3)c2)nc1-c1cc2c(cc1F)C(=O)NCC2" : what is it?
0.1 to 10 nM

Reported IC50 for "Nc1nc(F)c(-c2ccc(N3CCOCC3)c(CN3CCC3)c2F)nc1-c1ccc2c(c1)CCNC2=O" : what is it?
11 to 100 nM

Reported IC50 for "Cc1nc2cc(-c3nc(-c4ccc(N5CCN(C(C)C)CC5)cc4)c(F)nc3N)ccc2c(=O)[nH]1" : what is it?
11 to 100 nM

Reported IC50 for "Cc1c[nH]c(=O)c2ccc(-c3nc(-c4ccc(N5CCN(CC6CC6)CC5)cc4)c(F)nc3N)cc12" : what is it?
0.1 to 10 nM

Reported IC50 for "CC(C)(N)c1cc(-c2nc(-c3ccc4c(c3)CCNC4=O)c(N)nc2F)ccc1F" : what is it?
101 to 1000 nM

Reported IC50 for "Cc1nc2cc(-c3nc(-c4ccc([C@]56C[C@H]5CN(C)C6)cc4)c(F)nc3N)ccc2c(=O)[nH]1" : what is it?
11 to 100 nM

Reported IC50 for "COc1ccc(-c2nc(-c3ccc4c(=O)[nH]cc(F)c4c3)c(N)nc2F)cc1CN(C)C" : what is it?
0.1 to 10 nM

====

Target: Recombinant (1-346) HPK1 (h) (Homo sapiens, UniProt Q92918)
Construct: Recombinant (1-346) HPK1 (h) is incubated with 8 mM MOPS pH 7.0
Assay: HPK1 human STE kinase enzymatic radiometric assay
Assay type: biochemical
Conditions: read-out: HPK1 IC50 nM Range
Reported Property: IC50

Reported IC50 for CN(C)Cc1cc(-c2nc(-c3ccc4c(c3)CCNC4=O)c(N)nc2F)c(F)cc1N1CCOCC1 [Example I-258] : what is it?
101 to 1000 nM

Reported IC50 for COCCN(C)Cc1cc(-c2nc(-c3cc4c(cc3F)C(=O)NCC4)c(N)nc2F)ccc1N1CCOCC1 [Example I-161] : what is it?
0.1 to 10 nM

Reported IC50 for CCN(C)Cc1cc(-c2nc(-c3ccc4c(=O)[nH]cc(C)c4c3)c(N)nc2F)cc(C)c1OC [Example I-299] : what is it?
11 to 100 nM

Reported IC50 for Cc1c[nH]c(=O)c2ccc(-c3nc(-c4ccc5c(c4)[C@H](N(C)C)CO5)c(F)nc3N)cc12 [Example I-284] : what is it?
11 to 100 nM

Reported IC50 for CN(C)Cc1cccc(-c2nc(-c3cc(F)c4c(c3)CCNC4=O)c(N)nc2F)c1 [Example I-279] : what is it?
11 to 100 nM

Reported IC50 for CNCC1Cc2cc(-c3nc(-c4ccc(N5CCOCC5)cc4)c(F)nc3N)ccc2C(=O)N1 (stereo not shown) [Example I-12] : what is it?
0.1 to 10 nM

Reported IC50 for CN(C)Cc1c(N2CCOCC2)ccc(-c2nc(-c3cc4c(cc3F)C(=O)NCC4)c(N)nc2F)c1F [Example I-241] : what is it?
11 to 100 nM
